Target: Transforming growth factor beta-1 proprotein/Mothers against decapentaplegic homolog 3 (Mus musculus) (UniProt P04202+Q8BUN5)
Sequence (P04202 279-390 limits assumed): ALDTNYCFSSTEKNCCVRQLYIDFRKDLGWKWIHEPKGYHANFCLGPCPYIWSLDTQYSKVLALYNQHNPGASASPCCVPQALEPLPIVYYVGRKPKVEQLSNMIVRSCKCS
Sequence (Q8BUN5 2-425 partner limits assumed): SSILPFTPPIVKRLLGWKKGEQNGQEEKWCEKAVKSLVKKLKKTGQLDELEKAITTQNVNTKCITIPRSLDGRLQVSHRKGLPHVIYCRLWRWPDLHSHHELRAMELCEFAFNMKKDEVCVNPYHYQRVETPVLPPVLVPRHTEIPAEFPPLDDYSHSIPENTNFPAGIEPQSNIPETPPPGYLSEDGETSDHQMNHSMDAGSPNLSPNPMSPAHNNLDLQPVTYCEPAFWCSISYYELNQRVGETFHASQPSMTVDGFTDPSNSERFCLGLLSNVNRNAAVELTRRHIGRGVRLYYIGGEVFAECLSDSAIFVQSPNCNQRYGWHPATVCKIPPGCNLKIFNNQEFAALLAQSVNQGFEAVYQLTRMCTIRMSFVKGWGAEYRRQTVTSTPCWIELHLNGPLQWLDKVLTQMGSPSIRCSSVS
Assay: Inhibition of TGF-beta1/Smad3 signalling in TGF-beta1 treated mouse NIH3T3 cells transfected with (CAGA)12-Lux reporter gene assessed as suppressive ratio at 10 uM incubated for 18 hrs by luciferase based analysis relative to control
Format: cell-based
Design: scale not given: the % may be the effect or the level left
Overview of reported Activity across a group of molecules:

| smiles_str | value_unit | Activity |
| --- | --- | --- |
| C=C[C@]1(C)C[C@@H](O)[C@]2(C)[C@H](C)CC[C@]3(C/C(=C\c4ccc(SC)cc4)C(=O)[C@H]32)[C@@H](C)[C@@H]1O | % | 46 |
| C=C[C@]1(C)C[C@@H](O)[C@]2(C)[C@H](C)CC[C@]3(C/C(=C\c4ccccc4C)C(=O)[C@H]32)[C@@H](C)[C@@H]1O | % | 38.8 |
| NC(=O)c1ccc(-c2nc(-c3ccccn3)c(-c3ccc4c(c3)OCO4)[nH]2)cc1 | % | 98.9 |
| C=C[C@]1(C)C[C@@H](O)[C@]2(C)[C@H](C)CC[C@]3(C/C(=C\CC(C)(C)C)C(=O)[C@H]32)[C@@H](C)[C@@H]1O | % | 18.5 |
| C=C[C@]1(C)C[C@@H](O)[C@]2(C)[C@H](C)CC[C@]3(C/C(=C\c4ccc(C(=O)NC5CCN(C)CC5)cc4)C(=O)[C@H]32)[C@@H](C)[C@@H]1O | % | -9.93 |

* * *

Experiment: AUC (0 to t) in Sprague-Dawley rat at 10 mg/kg, iv measured for 12 hrs by LC-MS/MS analysis
Format: ADME, organism-based
Design: dose 10 mg/kg, time 12 hrs, route iv
Settings: in vivo
parameter_measured: AUC(0-t) at 12 h (ng·h/mL)

| smiles_str | measured |
| --- | --- |
| C=C[C@]1(C)C[C@@H](O)[C@]2(C)[C@H](C)CC[C@]3(C/C(=C\c4ccc(C(=O)NC5CCCCC5)cc4)C(=O)[C@H]32)[C@@H](C)[C@@H]1O | 2900 |

* * *

Experiment: Tmax in Sprague-Dawley rat at 100 mg/kg, po measured for 18 hrs by LC-MS/MS analysis
Format: ADME, organism-based
Conditions: in vivo

| smiles_str | Tmax [h] |
| --- | --- |
| C=C[C@]1(C)C[C@@H](O)[C@]2(C)[C@H](C)CC[C@]3(C/C(=C\c4ccc(C(=O)NC5CCCCC5)cc4)C(=O)[C@H]32)[C@@H](C)[C@@H]1O | 3.33 |

* * *

Experiment: Half life in Sprague-Dawley rat at 100 mg/kg, po measured for 18 hrs by LC-MS/MS analysis
Format: ADME, organism-based
Details: in vivo

| smiles_str | value_unit | half-life |
| --- | --- | --- |
| C=C[C@]1(C)C[C@@H](O)[C@]2(C)[C@H](C)CC[C@]3(C/C(=C\c4ccc(C(=O)NC5CCCCC5)cc4)C(=O)[C@H]32)[C@@H](C)[C@@H]1O | h | 9.21 |

* * *

Experiment: AUC (0 to t) in Sprague-Dawley rat at 100 mg/kg, po measured for 18 hrs by LC-MS/MS analysis
Type: ADME, organism-based
Parameters: dose 100 mg/kg, time 18 hrs, route po
Details: in vivo
parameter_measured: AUC(0-t) at 18 h (ng·h/mL)

| smiles_str | measured |
| --- | --- |
| C=C[C@]1(C)C[C@@H](O)[C@]2(C)[C@H](C)CC[C@]3(C/C(=C\c4ccc(C(=O)NC5CCCCC5)cc4)C(=O)[C@H]32)[C@@H](C)[C@@H]1O | 17800 |

All values here come from ChEMBL document CHEMBL5108019.
